target: Alpha-glucosidase MAL62 (Saccharomyces cerevisiae)
Sequence (P07265 whole entry): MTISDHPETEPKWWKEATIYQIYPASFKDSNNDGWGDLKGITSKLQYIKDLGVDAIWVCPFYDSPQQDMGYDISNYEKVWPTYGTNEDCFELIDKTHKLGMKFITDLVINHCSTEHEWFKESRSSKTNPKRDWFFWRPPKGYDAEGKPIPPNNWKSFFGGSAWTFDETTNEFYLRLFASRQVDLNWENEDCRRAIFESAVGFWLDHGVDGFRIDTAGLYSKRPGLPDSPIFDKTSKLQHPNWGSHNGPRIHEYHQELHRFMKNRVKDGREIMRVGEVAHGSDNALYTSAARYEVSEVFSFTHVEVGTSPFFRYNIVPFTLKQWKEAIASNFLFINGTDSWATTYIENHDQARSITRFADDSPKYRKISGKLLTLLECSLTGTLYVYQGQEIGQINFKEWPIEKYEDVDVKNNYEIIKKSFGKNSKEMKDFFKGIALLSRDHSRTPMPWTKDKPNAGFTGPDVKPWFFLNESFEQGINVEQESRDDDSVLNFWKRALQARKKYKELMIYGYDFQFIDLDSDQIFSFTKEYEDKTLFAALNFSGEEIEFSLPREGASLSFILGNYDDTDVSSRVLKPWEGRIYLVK
pIC50: −log10 of the molar value.
readout kind: pIC50

smiles entry | target | readout kind | readout value
CC(C)=CCC[C@@H](C(=O)O)[C@H]1CC[C@@]2(C)C3=C(CC[C@]12C)[C@@]1(C)CC[C@H](O)C(C)(C)[C@@H]1CC3 | Alpha-glucosidase MAL62 (Saccharomyces cerevisiae) | pIC50 | 4.77

Values compiled from ChEMBL document CHEMBL3045664.
